# assay setup: siRNA; also: test system not given here
HELM strings list units from the 5' end as sugar, base in round brackets, then linkage (d deoxyribose, r ribose, m 2'-O-methyl, p phosphodiester). Strings are as the collection lists them, not checked against the first reports. ss, as = sense and antisense strand; [fl2r] = 2'-fluoro
observable: target mRNA knockdown (%)
All answers are understood in %, so give the number only.

Lookup: Entry RNA1{[fl2r](A)p.r(A)p.[fl2r](C)p.r(C)p.[fl2r](C)p.r(A)p.[fl2r](C)p.r(C)p.[fl2r](A)p.r(C)p.[fl2r](A)p.r(G)p.[fl2r](C)p.r(U)p.[fl2r](A)p.r(G)p.[fl2r](A)p.r(A)p.[fl2r](C)p.r(U)p.r(U)}|RNA2{[fl2r](G)p.r(U)p.r(U)p.r(C)p.r(U)p.r(A)p.[fl2r](G)p.r(C)p.r(U)p.[fl2r](G)p.r(U)p.[fl2r](G)p.[fl2r](G)p.r(U)p.[fl2r](G)p.[fl2r](G)p.[fl2r](G)p.r(U)p.r(U)p.r(U)p.r(U)}$$$RNA1{StrandType:ss}|RNA2{StrandType:as}$ needs its target mRNA knockdown filled in; supply it.
Found: 57
